Provenance of the data: PubChem BioAssay

- TEST_SUMMARY: ovarian cancer cell viability with rucaparib, profiling panel, oncology-focused library, rucaparib conditional (AID 1508598)
- ASSAY_CONTEXT: patient-derived ovarian cancer cells, CellTiter-Glo viability, 144 h; at 1.25 µM; OCI-P5x cells; without rucaparib; hits give low values

STRUCTURE_SMILES_STRING	viability [%]
COc1nc(N)nc2c1ncn2[C@@H]1O[C@H](CO)[C@@H](O)[C@@H]1O	90.1
O=C(O[C@@H]1Cc2c(O)cc(O)cc2O[C@@H]1c1cc(O)c(O)c(O)c1)c1cc(O)c(O)c(O)c1	104
COc1c(C)c2c(c(O)c1C/C=C(\C)CCC(=O)O)C(=O)OC2	40.7

* * *

- TARGET_DESC: Mitogen-activated protein kinase 7 (Homo sapiens) (UniProt Q13164)
- Sequence (Q13164 whole entry, looked up, the tested form may be a part): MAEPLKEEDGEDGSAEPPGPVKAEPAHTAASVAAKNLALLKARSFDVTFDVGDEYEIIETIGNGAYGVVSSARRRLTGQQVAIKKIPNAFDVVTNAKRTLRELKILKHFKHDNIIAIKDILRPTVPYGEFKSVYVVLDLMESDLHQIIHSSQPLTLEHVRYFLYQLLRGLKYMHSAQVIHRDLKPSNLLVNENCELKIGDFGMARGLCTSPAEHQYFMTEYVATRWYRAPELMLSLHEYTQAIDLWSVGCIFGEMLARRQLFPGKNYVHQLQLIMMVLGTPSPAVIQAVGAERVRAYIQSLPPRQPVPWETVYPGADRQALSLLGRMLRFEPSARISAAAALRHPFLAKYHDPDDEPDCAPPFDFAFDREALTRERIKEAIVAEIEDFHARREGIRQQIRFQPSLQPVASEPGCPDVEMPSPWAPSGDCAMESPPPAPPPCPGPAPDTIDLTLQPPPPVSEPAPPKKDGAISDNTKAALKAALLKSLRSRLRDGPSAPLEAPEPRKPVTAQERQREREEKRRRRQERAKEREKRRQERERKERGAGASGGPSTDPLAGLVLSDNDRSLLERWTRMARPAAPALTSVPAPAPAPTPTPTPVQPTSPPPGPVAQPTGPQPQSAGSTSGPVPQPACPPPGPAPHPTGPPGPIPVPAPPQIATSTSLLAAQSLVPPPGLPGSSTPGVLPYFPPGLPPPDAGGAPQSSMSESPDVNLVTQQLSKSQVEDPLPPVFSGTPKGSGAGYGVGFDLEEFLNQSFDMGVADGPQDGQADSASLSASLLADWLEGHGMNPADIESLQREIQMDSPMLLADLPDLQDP
- TEST_SUMMARY: ERK5 transactivation activators in reporter cells, primary screen, cell-based, HTS (AID 1508626);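 note: luciferase driven by Gal4-ERK5 fusion binding five Gal4 sites before minimal TATA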
- ASSAY_CONTEXT: HeLa Gal4-ERK5 transactivation, 18 h, at 5 µM, hits give high values
Active and inactive are the calls of the source.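 Rule for the calls: active = luciferase signal above three times the same-plate solvent-only control wells; inactive = the rest.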
Recorded luciferase signal values for a group of compounds are listed next.

COMPOUND	TARGET_DESC	luciferase signal
COc1ccc2c(c1)OCC(Cc1ccc(OC)c(OC)c1)C2=O (stereo not given)	Mitogen-activated protein kinase 7 (Homo sapiens) (UniProt Q13164)	56 AU (inactive)
COc1ccc(CCC(=O)c2c(O)cc(O[C@@H]3O[C@H](CO)[C@@H](O)[C@H](O)[C@H]3O[C@@H]3O[C@@H](C)[C@H](O)[C@@H](O)[C@H]3O)cc2O)cc1O	Mitogen-activated protein kinase 7 (Homo sapiens) (UniProt Q13164)	36 AU (inactive)
CC1(C)[C@@H](O)CC[C@]2(C)[C@H]3C(=O)C=C4[C@@H]5C[C@@](C)(C(=O)O)CC[C@]5(C)CC[C@@]4(C)[C@]3(C)CC[C@@H]12	Mitogen-activated protein kinase 7 (Homo sapiens) (UniProt Q13164)	56 AU (inactive)
CC1(C)CC23C(=O)CCC(O)C2(C)CCC13 (stereo not given)	Mitogen-activated protein kinase 7 (Homo sapiens) (UniProt Q13164)	72 AU (inactive)
COc1ccc(C(=O)CC(=O)O)c2c1C=CC(C)(C)O2	Mitogen-activated protein kinase 7 (Homo sapiens) (UniProt Q13164)	60 AU (inactive)
COc1ccc([C@@H]2CC(=O)c3c(O)cc(O[C@@H]4O[C@H](CO[C@@H]5O[C@@H](C)[C@H](O)[C@@H](O)[C@H]5O)[C@@H](O)[C@H](O)[C@H]4O)cc3O2)cc1O	Mitogen-activated protein kinase 7 (Homo sapiens) (UniProt Q13164)	88 AU (inactive)
COC(=O)c1c(C)cc(OC(=O)c2c(C)cc(O)c(C=O)c2O)c(C)c1O	Mitogen-activated protein kinase 7 (Homo sapiens) (UniProt Q13164)	12 AU (inactive)
NC(N)=O	Mitogen-activated protein kinase 7 (Homo sapiens) (UniProt Q13164)	52 AU (inactive)
O=C1OC(=O)C2C3CCC(O3)C12 (stereo not given)	Mitogen-activated protein kinase 7 (Homo sapiens) (UniProt Q13164)	52 AU (inactive)
C=CC(C)(O)CC/C=C(\C)CCC=C(C)C (stereo not given)	Mitogen-activated protein kinase 7 (Homo sapiens) (UniProt Q13164)	68 AU (inactive)

* * *

- TEST_SUMMARY: growth inhibition of DIPG glioma cells, dose response, cell-based, SU-DIPG-XIII, MIPE5.0, CellTiter-Glo, qHTS (AID 1347064);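 for AC50: cells exposed to compound for 48 hours before the viability read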
- ASSAY_CONTEXT: SU-DIPG-XIII viability, CellTiter-Glo ATP luminescence
Results filed as inconclusive are left out. Calls of active or inactive are those of the source. Cut-off not given; nearly all actives show AC50 up to about 23 µM.
Possible outcomes: T for active, F for inactive

COMPOUND	QUALITATIVE_LABEL
C=C[C@H]1CN2CC[C@H]1C[C@H]2[C@H](O)c1ccnc2ccc(OC)cc12	F
Clc1ccccc1CN1CCc2sccc2C1	F
C1COC(NC(C2CC2)C2CC2)=N1	F
O=C(CCCCCCC(=O)Nc1ccccc1)NO	T
Nc1ncn([C@H]2C[C@H](O)[C@@H](CO)O2)c(=O)n1	F
Cc1cc(O)c2c(c1)C(=O)c1cc(O)cc(O)c1C2=O	F
C[C@H]1COc2c(N3CCN(C)CC3)c(F)cc3c(=O)c(C(=O)O)cn1c23	F
Nc1ccn([C@@H]2O[C@H](CO)[C@@H](O)[C@H]2O)c(=O)n1	F
CCOCC(O)COc1ccc(NC(=O)CC[S+](C)C)cc1 (configuration not stated)	F
CC[C@@]1(O)C[C@H](O[C@H]2C[C@H](N(C)C)[C@H](O[C@H]3C[C@H](O)[C@H](O[C@H]4CCC(=O)[C@H](C)O4)[C@H](C)O3)[C@H](C)O2)c2c(cc3c(c2O)C(=O)c2c(O)cccc2C3=O)[C@H]1C(=O)OC	T
O=C(NOCC1CC1)c1ccc(F)c(F)c1Nc1ccc(I)cc1Cl	T
CC(C)c1c(C(=O)Nc2ccccc2)c(-c2ccccc2)c(-c2ccc(F)cc2)n1CC[C@@H](O)C[C@@H](O)CC(=O)O	F
CC(C)(C)NCC(O)c1ccc(O)c(CO)c1 (configuration not stated)	F
COC(=O)[C@@H]1CC2=CC(=O)CC[C@]2(C)[C@@]23O[C@@H]2C[C@@]2(C)[C@@H](CC[C@@]24CCC(=O)O4)[C@H]13	F
C[C@]12CCC(=O)C=C1[C@@H]1C[C@@H]1[C@H]1[C@@H]3[C@@H]4C[C@@H]4[C@@]4(CCC(=O)O4)[C@@]3(C)CC[C@@H]12	F
NC(=O)c1cccc(N)c1	F
Cn1c(=O)c2c(ncn2CC2OCCO2)n(C)c1=O	F

* * *

- TARGET_DESC: 6-phosphogluconate dehydrogenase, decarboxylating (Homo sapiens) (UniProt P52209)
- Sequence (P52209 whole entry, looked up): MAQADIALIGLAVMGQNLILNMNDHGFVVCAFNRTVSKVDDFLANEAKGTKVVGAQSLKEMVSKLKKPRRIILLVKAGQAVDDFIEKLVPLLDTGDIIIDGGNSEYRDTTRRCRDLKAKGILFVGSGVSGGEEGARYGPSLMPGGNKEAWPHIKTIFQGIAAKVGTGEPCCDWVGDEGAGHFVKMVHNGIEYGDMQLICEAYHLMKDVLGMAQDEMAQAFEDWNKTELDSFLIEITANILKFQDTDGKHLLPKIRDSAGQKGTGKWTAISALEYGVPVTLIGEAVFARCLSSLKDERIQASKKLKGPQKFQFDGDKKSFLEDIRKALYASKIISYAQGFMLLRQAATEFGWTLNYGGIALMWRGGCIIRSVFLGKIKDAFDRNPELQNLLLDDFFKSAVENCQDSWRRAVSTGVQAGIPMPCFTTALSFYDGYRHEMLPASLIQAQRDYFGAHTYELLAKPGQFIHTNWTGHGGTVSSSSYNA
- TEST_SUMMARY: 6PGD enzyme inhibitors, primary screen, biochemical, human, recombinant enzyme, NADPH absorbance (AID 1159550)
- ASSAY_CONTEXT: recombinant 6PGD, NADPH absorbance 341 nm; at 10 µM; hits give high values

COMPOUND	TARGET_DESC	inhibition / %
CC(=O)c1ccc[nH]1	6-phosphogluconate dehydrogenase, decarboxylating (Homo sapiens) (UniProt P52209)	13.8
CC(=O)O[C@H]1C(=O)[C@@]2(C)[C@H]([C@H](OC(=O)c3ccccc3)[C@]3(O)C[C@H](OC(=O)[C@H](O)[C@@H](NC(=O)c4ccccc4)c4ccccc4)C(C)=C1C3(C)C)[C@]1(OC(C)=O)CO[C@@H]1C[C@@H]2O	6-phosphogluconate dehydrogenase, decarboxylating (Homo sapiens) (UniProt P52209)	17.9
CCCC(=O)OC1(C(=O)CO)CCC2C3CCC4=CC(=O)CCC4(C)C3C(O)CC21C (stereo not drawn)	6-phosphogluconate dehydrogenase, decarboxylating (Homo sapiens) (UniProt P52209)	-0.0758
CN1CCN(CC/C=C2/c3ccccc3Sc3ccc(S(=O)(=O)N(C)C)cc32)CC1	6-phosphogluconate dehydrogenase, decarboxylating (Homo sapiens) (UniProt P52209)	2.11
CC[C@H]1OC(=O)[C@H](C)[C@@H](O[C@H]2C[C@@](C)(OC)[C@@H](O)[C@H](C)O2)[C@H](C)[C@@H](O[C@@H]2O[C@H](C)C[C@H](N(C)C)[C@H]2O)[C@](C)(O)C[C@@H](C)/C(=N\OCOCCOC)[C@H](C)[C@@H](O)[C@]1(C)O	6-phosphogluconate dehydrogenase, decarboxylating (Homo sapiens) (UniProt P52209)	16.8
CCC/C=C1\OC(=O)C2=C1CCC=C2	6-phosphogluconate dehydrogenase, decarboxylating (Homo sapiens) (UniProt P52209)	3.63
CC(C)[C@@H](C)/C=C/[C@@H](C)[C@H]1CC[C@H]2C3=CC=C4C[C@@H](O)CC[C@]4(C)[C@H]3CC[C@]12C	6-phosphogluconate dehydrogenase, decarboxylating (Homo sapiens) (UniProt P52209)	-7.51
C=CC1=C(C)/C(=C/c2[nH]c(Cc3[nH]c(/C=C4\NC(=O)C(C)=C4C=C)c(C)c3CCC(=O)O)c(CCC(=O)O)c2C)NC1=O	6-phosphogluconate dehydrogenase, decarboxylating (Homo sapiens) (UniProt P52209)	2.22
CCOC(=O)c1c(C)cc(O)c(C=O)c1O	6-phosphogluconate dehydrogenase, decarboxylating (Homo sapiens) (UniProt P52209)	-5.47
COC(=O)c1c(C)cc(O)cc1O	6-phosphogluconate dehydrogenase, decarboxylating (Homo sapiens) (UniProt P52209)	7.84
C[C@H](CCC(=O)O)[C@H]1CC[C@H]2[C@@H]3CC[C@@H]4C[C@H](O)CC[C@]4(C)[C@H]3CC[C@]12C	6-phosphogluconate dehydrogenase, decarboxylating (Homo sapiens) (UniProt P52209)	3.51
CNCCCN1c2ccccc2CCc2ccccc21	6-phosphogluconate dehydrogenase, decarboxylating (Homo sapiens) (UniProt P52209)	3.76
COc1cc(OC)c2oc(-c3ccc(OC)c(OC)c3)c(O)c(=O)c2c1	6-phosphogluconate dehydrogenase, decarboxylating (Homo sapiens) (UniProt P52209)	-1.17
